tested on: β-galactosidase in CMV-LacZ C2C12 myotubes; experiment: CMV-LacZ secondary screen in C2C12 myotubes (β-Gal stabilizing assay); format: cell-based, mouse; details: 1 uM; C2C12 CMV-LacZ myotubes; fold relative to DMSO
Output schema: class label derived from CMV-LACZ in Myotubes, signal relative to DMSO. Mapping: bottom bin (below 0.9), middle bin (0.9 to below 1), top bin (1 or more)

Field: example entries. Status: answers known.
COMPOUND: COC(=O)c1ccc(N=Nc2ccccc2)cc1
CLASS: top bin
//
COMPOUND: CCOn1c(=O)c(-c2ccccc2)[n+]([O-])c2ccccc21
CLASS: middle bin
//
COMPOUND: O=C(N/N=C/c1c[nH]c2ccccc12)c1cc(Cl)ccc1O
CLASS: middle bin

Category of O=C1Nc2ccccc2/C1=C/c1ccccc1F : top bin

Category of CCOc1cc(C)c(S(=O)(=O)N2CCCCC2)cc1C : top bin

Category of COc1cc(/C=C/CN2CCN(Cc3ccc(C)o3)C(CCO)C2)ccc1O (stereo not drawn) : bottom bin

###

Listing: Burkin Assay in Myotubes, α7 integrin LacZ reporter signal relative to DMSO of selected compounds
tested on: α7 integrin (LacZ reporter in α7+/LacZ myotubes); assay: Myotube α7 integrin FDG assay (Burkin assay in myotubes, 96-well); type: cell-based, mouse; details: myotubes, 10 uM
API note: the answer field is a bare number with no unit suffix.

COMPOUND: NC(=O)c1sc2nc3c(cc2c1N)CCC3
MEASUREMENT TARGET: α7 integrin (LacZ reporter in α7+/LacZ myotubes)
ASSAY VALUE: 1.241

Looking up CC(=O)Nc1nonc1-c1nc2ccccc2n1CCC(C)C , I found its Burkin Assay in Myotubes, α7 integrin LacZ reporter signal relative to DMSO recorded as 0.9249

Looking up COC(=O)c1ccc(N=Nc2ccccc2)cc1 , I found its Burkin Assay in Myotubes, α7 integrin LacZ reporter signal relative to DMSO recorded as 0.939

Looking up CC1CC(C)(C)NC(=S)N1CC(=O)N(C)Cc1ccccc1 (centres unmarked) , I found its Burkin Assay in Myotubes, α7 integrin LacZ reporter signal relative to DMSO recorded as 1.179

Looking up O=c1c2cc(-c3ccccc3)sc2nc2n1N=C(c1ccccc1)CS2 , I found its Burkin Assay in Myotubes, α7 integrin LacZ reporter signal relative to DMSO recorded as 0.8922

###

test system: β-galactosidase in CMV-LacZ C2C12 myotubes; assay: CMV-LacZ secondary screen in C2C12 myotubes (β-Gal stabilizing assay); assay type: cell-based, mouse; conditions: 0.5 uM; C2C12 CMV-LacZ myotubes; fold relative to DMSO
Binary call on CMV-LACZ in Myotubes, signal relative to DMSO with cut-off 1: strictly below means TRUE, and equality or higher means FALSE.

COMPOUND: c1ccc(-c2nn[nH]n2)nc1
MEASUREMENT TARGET: β-galactosidase in CMV-LacZ C2C12 myotubes
CLASS: TRUE

# strict comparison: is reported CMV-LACZ in Myotubes, signal relative to DMSO < 1? input = N#CC1=C2SCN(c3ccccc3)CN2C(=O)CC1c1cccs1 (stereo not drawn) FALSE

# strict comparison: is reported CMV-LACZ in Myotubes, signal relative to DMSO < 1? input = CC(C)(C)c1csc(NC(=O)c2cccnc2)n1 TRUE

# strict comparison: is reported CMV-LACZ in Myotubes, signal relative to DMSO < 1? input = O=C(CSc1nnc(COc2ccc(Br)cc2)o1)NC1CCCCC1 FALSE

# strict comparison: is reported CMV-LACZ in Myotubes, signal relative to DMSO < 1? input = CCOc1ccccc1NC(=O)COC(=O)CNS(=O)(=O)c1ccc(C)cc1 FALSE

# strict comparison: is reported CMV-LACZ in Myotubes, signal relative to DMSO < 1? input = N/C(=N\OC(=O)c1cccc(C(F)(F)F)c1)c1cnccn1 TRUE

# strict comparison: is reported CMV-LACZ in Myotubes, signal relative to DMSO < 1? input = Cc1ccccc1S(=O)(=O)N1C[C@H]2CON(C)[C@H]2C[C@H]1c1cccc(-c2ccccc2)c1 FALSE

# strict comparison: is reported CMV-LACZ in Myotubes, signal relative to DMSO < 1? input = O=C(Cn1nc(-c2ccc(Cl)cc2)ccc1=O)N1CCC2(CC1)OCCO2 FALSE

# strict comparison: is reported CMV-LACZ in Myotubes, signal relative to DMSO < 1? input = Nc1ncnc(NCc2ccccc2)c1[N+](=O)[O-] FALSE

# strict comparison: is reported CMV-LACZ in Myotubes, signal relative to DMSO < 1? input = O=C(N[C@@H](Cc1c[nH]c2ccccc12)C(=O)O)C1CCN(S(=O)(=O)c2cccs2)CC1 FALSE

# strict comparison: is reported CMV-LACZ in Myotubes, signal relative to DMSO < 1? input = Cl.O=C1C2CCCN2C(=O)N1CCCN1CCN(c2cccc(Br)c2)CC1 (stereo not drawn) TRUE

# strict comparison: is reported CMV-LACZ in Myotubes, signal relative to DMSO < 1? input = COc1ccc(C(=O)Nc2ccc(Cl)cn2)cc1Cl TRUE

# strict comparison: is reported CMV-LACZ in Myotubes, signal relative to DMSO < 1? input = CCCC(=O)OCC(=O)c1[nH]c(C)c(C(C)=O)c1C FALSE
